- target entity: Proton Pump (H^+/K^+-ATPase) (Sus scrofa, UniProt P19156)
- Sequence (P19156 2-1034 limits assumed): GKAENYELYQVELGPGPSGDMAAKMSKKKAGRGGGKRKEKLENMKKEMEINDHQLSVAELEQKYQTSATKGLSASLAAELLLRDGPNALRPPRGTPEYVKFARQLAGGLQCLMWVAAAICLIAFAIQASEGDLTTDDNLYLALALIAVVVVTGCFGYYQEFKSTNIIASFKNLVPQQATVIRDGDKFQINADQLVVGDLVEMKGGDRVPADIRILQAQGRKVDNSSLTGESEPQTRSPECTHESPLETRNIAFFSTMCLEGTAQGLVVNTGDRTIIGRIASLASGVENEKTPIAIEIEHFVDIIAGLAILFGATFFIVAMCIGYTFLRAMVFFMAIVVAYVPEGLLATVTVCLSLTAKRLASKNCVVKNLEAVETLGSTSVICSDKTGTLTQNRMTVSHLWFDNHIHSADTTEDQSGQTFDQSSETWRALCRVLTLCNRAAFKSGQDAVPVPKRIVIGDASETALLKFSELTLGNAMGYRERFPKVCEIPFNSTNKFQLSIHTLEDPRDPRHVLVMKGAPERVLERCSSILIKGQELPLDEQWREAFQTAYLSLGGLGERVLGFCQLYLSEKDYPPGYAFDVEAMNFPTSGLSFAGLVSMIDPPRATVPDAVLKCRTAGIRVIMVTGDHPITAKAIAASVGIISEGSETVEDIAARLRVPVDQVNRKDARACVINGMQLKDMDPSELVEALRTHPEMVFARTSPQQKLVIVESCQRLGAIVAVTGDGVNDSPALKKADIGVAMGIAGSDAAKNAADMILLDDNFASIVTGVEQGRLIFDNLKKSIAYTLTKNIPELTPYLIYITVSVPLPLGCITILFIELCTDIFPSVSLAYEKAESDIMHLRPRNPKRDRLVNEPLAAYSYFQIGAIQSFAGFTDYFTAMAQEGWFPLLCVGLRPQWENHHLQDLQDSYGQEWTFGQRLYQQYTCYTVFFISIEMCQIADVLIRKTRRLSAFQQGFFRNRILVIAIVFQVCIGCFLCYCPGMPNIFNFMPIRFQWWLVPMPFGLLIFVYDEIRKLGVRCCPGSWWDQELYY
- Sequence (P18434 whole entry partner): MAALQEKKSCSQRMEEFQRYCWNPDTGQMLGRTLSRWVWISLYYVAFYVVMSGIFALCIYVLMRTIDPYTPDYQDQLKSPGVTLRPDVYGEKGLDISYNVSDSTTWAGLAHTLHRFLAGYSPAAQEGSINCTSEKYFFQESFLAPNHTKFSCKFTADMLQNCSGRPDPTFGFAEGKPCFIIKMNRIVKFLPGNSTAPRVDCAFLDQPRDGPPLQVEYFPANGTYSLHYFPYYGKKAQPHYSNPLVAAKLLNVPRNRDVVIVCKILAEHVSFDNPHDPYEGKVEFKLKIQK
- test method notes: Inhibitory effects on proton pump (H^+/K^+-ATPase) activity
- condition details: hog gastric vesicles; K^+ stimulated H^+/K^+-ATPase activity; 30 minutes at 37° C.
Structures can show the parent of a compound that is named as a salt.
measurement label: IC50 (nM)
Write the number in nM without appending the unit.

Here is how some molecules turned out for IC50.
> print(dat)
                                   molecule  quantitative.readout
1  COc1cccc(Cn2c(C)c(C)c3cc(C(=O)N4CCOCC4)nc(N4CCc5ccccc5C4)c32)c1 [Example 780, hydrochloride]                   125
2  COc1cccc(Cn2c(C)c(C)c3cc(C(=O)N4CCN(C)CC4)nc(N4CCc5ccccc5C4)c32)c1 [Example 783, hydrochloride]                     3
3  COC(=O)c1cc2c(C)c(C)n(Cc3ccccc3)c2c(N2CCc3ccccc3C2)n1                   231
4  Cc1c(C)n(Cc2cccc(Cl)c2)c2c(N3CCc4ccccc4C3)nc(C=O)cc12                   109
5  Cc1c(C)n(Cc2cccc(F)c2)c2c(N3CCc4ccc(Cl)cc4C3C)nccc12 (stereo not shown) [Example 539, hydrochloride]                   250

Respond only with IC50 recorded for C=Cc1ccc(-c2nccc3c(C)c(C)n(CC)c23)cc1 [Example 251, hydrochloride] 460

Respond only with IC50 recorded for Cc1nc(Cn2c(C)c(C)c3ccnc(N4CCc5ccccc5C4)c32)cs1.Cl [Example 474, hydrochloride] 110
